test: in vivo; settings: Frings, mouse, in vivo, po
test-readout: TD50 (mg/kg)
Respond with the bare value in mg/kg.

- CNCCC(c1cccc(F)c1)c1cccc(F)c1 [Compound 60]: 25.6

TD50 recorded for this compound, C[C@H](N)CC(c1cccc(F)c1)c1cccc(F)c1 [Compound 50] , is 18.9

---

molecular target: NMDA receptor-ionophore complex (site labeled by [3H]MK-801); assay: Inhibition of [3H]MK-801 binding in rat cortical/hippocampal washed membrane preparations; conditions: read-out: IC50 (μM) vs. [3H]MK-801; rat cortical/hippocampal washed membranes
Binning of IC50 into classes: label 0: < 0.7 µM; label 1: ≥ 0.7 µM and < 30 µM; label 2: ≥ 30 µM

Some solved entries appear below for comparison.
• COc1ccc(C(CCN)c2cccc(F)c2)cc1 (stereo not shown) = label 2
• NCCC(Cc1ccccc1)c1ccccc1 (stereo not shown) = label 1

**Query** In plain terms, what class is CC(CN)C(c1cccc(F)c1)c1cccc(F)c1 (stereo not shown) ?
**Result** label 0

**Query** In plain terms, what class is `NCC=C(c1ccccc1)c1ccccc1` ?
**Result** label 1

---

system: mean arterial blood pressure; conditions: i.v.
test-readout: no significant cardiovascular activity in anesthetized rats at doses up to

* CCNCCC(c1cccc(F)c1)c1cccc(F)c1 [Compound 59] | up to 10 mg/kg
* CC(N)CC(c1cccc(F)c1)c1cccc(F)c1 (stereo not drawn) [Compound 22] | ≤ 4.47 mg/kg
* COc1ccccc1C(CCN)c1cccc(F)c1 (stereo not drawn) [Compound 24] | up to 10 mg/kg

---

molecular target: norepinephrine uptake site (Rattus norvegicus); construct: from tissue; host or cells: rat cortical membranes (per the assay title); assay: Norepinephrine uptake binding assay: [3H]desipramine binding to rat cortical membranes; details: at 0.1 μM
test-readout: Monoamine uptake binding assays: norepinephrine uptake binding assay, percent block

Known Monoamine uptake binding assays: norepinephrine uptake binding assay, percent block results, listed for orientation:
* N[C@H]1CCCC1C(c1cccc(F)c1)c1cccc(F)c1 (some centres unmarked) | 10^f7% at
* CCNCCC(c1cccc(F)c1)c1cccc(F)c1 | 10^f7% at
* C[C@H](N)CC(c1cccc(F)c1)c1cccc(F)c1 | 10% at
* C[C@H](CN)C(c1cccc(F)c1)c1cccc(F)c1 | 10^f10% at

Continue with the molecule presented below.
Monoamine uptake binding assays: norepinephrine uptake binding assay, percent block recorded for this molecule, `C[C@@H](CN)C(c1cccc(F)c1)c1cccc(F)c1` , is 10^f2% at

---

biological target: NMDA receptor; conditions: rat hippocampal slices; read-out: IC50 for the NMDA receptor-mediated response
test-readout: pIC50
The quantity pIC50 is defined as the negative base-10 logarithm of the molar concentration.

pIC50 recorded for this compound, N=C(N)NCCCC(N)C(=O)NCCCNCCCNCCCCCNC(=O)C(CC(N)=O)NC(=O)Cc1ccc(O)cc1O (stereo not shown) , is 4.70

---

target: NMDA receptor-ionophore complex (site labeled by [3H]MK-801); test: Inhibition of [3H]MK-801 binding in rat cortical/hippocampal washed membrane preparations; details: read-out: IC50 (μM) vs. [3H]MK-801; rat cortical/hippocampal washed membranes
Counter-ions that a name gives are not always drawn.
test-readout: log10 of IC50 (log10 of the value in µM)
Quick note: numbers are log10 of IC50, with µM as the unit.

Known log10 of IC50 results, listed for orientation:
- CNCCC(c1cccc(F)c1)c1ccc(O)c(F)c1 (racemic) [Compound 176, hydrochloride]: 1.00
- CCC(CC)(CN)C(c1cccc(F)c1)c1cccc(F)c1 [Compound 80]: 2.26
- CNCCC(c1cccc(F)c1)c1ccc(OC)c(F)c1 (racemic) [Compound 174]: 1.76
- CCCC(NCCC(c1ccccc1)c1ccccc1)c1ccccc1 (stereo not drawn) [Compound 157]: 1.37
- COc1cccc(C(CCN)c2cccc(OC)c2)c1 [Compound 115, 3,3-bis(3-methoxyphenyl)-1-propylamine]: 0.00
- COc1ccccc1C(CCN)c1cccc(F)c1 (stereo not drawn) [Compound 24]: -0.23

log10 of IC50 recorded for this molecule, CCC(NCCC(c1cccc(F)c1)c1cccc(F)c1)c1ccccc1 (stereo not drawn) [Compound 94] , is 1.35

log10 of IC50 recorded for this molecule, COc1ccccc1OC(CCN)c1ccccc1 (stereo not drawn) [Compound 178] , is 0.10

---

Reported IC50 values for the following compounds.
molecular target: NMDA receptor-ionophore complex (site labeled by [3H]MK-801); experiment: Inhibition of [3H]MK-801 binding in rat cortical/hippocampal washed membrane preparations; details: read-out: IC50 (μM) vs. [3H]MK-801; rat cortical/hippocampal washed membranes
Structures can show the parent of a compound that is named as a salt.
Respond with the bare value in µM.

Known IC50 results, listed for orientation:
• NCCC1c2ccccc2CCc2ccc(F)cc21 (stereo not drawn) [Compound 197, hydrochloride] = 0.053
• Fc1cccc(C(=C2CCNCC2)c2cccc(F)c2)c1 = 13.3
• Cc1ccc(F)cc1C(CCN)c1cc(F)ccc1C = 0.203
• CCC(CCN)c1cccc(F)c1 (stereo not drawn) = 25.1
• CNCCCN1c2ccccc2CCc2ccccc21 [desipramine, reference compound] = 3.26

IC50 recorded for this compound, CN(C)CCC=C1c2ccccc2C=Cc2ccccc21 [Cyclobenzaprine, reference compound] , is 14.5

IC50 recorded for this compound, CN(C)CCCN1c2ccccc2Sc2ccc(Cl)cc21 [Chlorpromazine, reference compound] , is 11.2

IC50 recorded for this compound, `NCCCNCCCCNCCCNCCCNCCCNC(=O)Cc1c[nH]c2ccc(F)cc12` , is 89

IC50 recorded for this compound, COc1ccccc1OC(CCN)c1cccc(F)c1 (stereo not drawn) , is 0.67

IC50 recorded for this compound, NCCC(Oc1ccccc1)c1cccc(F)c1 (stereo not drawn) , is 0.24

IC50 recorded for this compound, NCCC(Oc1cccc(Cl)c1)c1cccc(F)c1 (stereo not drawn) , is 0.074

IC50 recorded for this compound, CCC(NCCC(c1ccccc1)c1ccccc1)c1cccc([N+](=O)[O-])c1 (stereo not drawn) , is 57

IC50 recorded for this compound, CCC(NCCC(c1ccccc1)c1ccccc1)c1cccc(Cl)c1 (stereo not drawn) , is 10.4

IC50 recorded for this compound, COc1ccc(C(CCN)c2cccc(F)c2)cc1F (racemic) , is 24.1

IC50 recorded for this compound, CCC(NCCC(c1ccccc1)c1ccccc1)c1ccccc1OC (racemic) , is 14.5

IC50 recorded for this compound, CC(C)C(NCCC(c1ccccc1)c1ccccc1)c1ccccc1 (stereo not drawn) , is 39.6

IC50 recorded for this compound, COc1ccc(F)cc1C(CCN)c1cccc(F)c1 (stereo not drawn) , is 0.324

IC50 recorded for this compound, N[C@@H]1CCCC1C(c1cccc(F)c1)c1cccc(F)c1 (stereo partly drawn) , is 0.851

IC50 recorded for this compound, `NCCCc1ccccc1Cc1ccccc1` , is 17.5

IC50 recorded for this compound, CN(C)CCC=C1c2ccccc2CCc2ccccc21 [Amitriptyline, reference compound] , is 14.2

IC50 recorded for this compound, Cc1ccccc1OC(CCN)c1ccccc1 (stereo not drawn) , is 0.754

IC50 recorded for this compound, NCCC1c2cc(F)ccc2CCc2ccc(F)cc21 [Compound 195, hydrochloride] , is 0.029

---

Reported Monoamine uptake binding assays: norepinephrine uptake binding assay, percent block values for the following molecules.
molecular target: norepinephrine uptake site (Rattus norvegicus, UniProt Q63380); construct: from tissue; host or cells: rat cortical membranes (per the assay title); test: Norepinephrine uptake binding assay: [3H]desipramine binding to rat cortical membranes; settings: at 0.1 μM
Sequence (Q63380 1-617): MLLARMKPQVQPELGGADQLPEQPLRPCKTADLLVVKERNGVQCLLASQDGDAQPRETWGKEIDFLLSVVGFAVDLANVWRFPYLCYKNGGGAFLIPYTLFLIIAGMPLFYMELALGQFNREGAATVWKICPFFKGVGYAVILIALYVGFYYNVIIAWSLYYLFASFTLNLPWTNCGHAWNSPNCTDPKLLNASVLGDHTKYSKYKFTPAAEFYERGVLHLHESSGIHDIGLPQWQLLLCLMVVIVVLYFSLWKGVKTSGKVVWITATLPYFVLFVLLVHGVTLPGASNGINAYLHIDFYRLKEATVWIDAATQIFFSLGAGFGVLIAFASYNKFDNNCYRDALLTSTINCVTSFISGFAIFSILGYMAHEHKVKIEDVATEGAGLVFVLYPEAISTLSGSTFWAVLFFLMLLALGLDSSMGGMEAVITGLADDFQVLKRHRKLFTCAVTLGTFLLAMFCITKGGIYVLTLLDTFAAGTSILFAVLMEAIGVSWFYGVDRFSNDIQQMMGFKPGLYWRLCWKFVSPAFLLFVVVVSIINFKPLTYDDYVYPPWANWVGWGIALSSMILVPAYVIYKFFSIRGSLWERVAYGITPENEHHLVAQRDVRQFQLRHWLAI

Known Monoamine uptake binding assays: norepinephrine uptake binding assay, percent block results, listed for orientation:
- N[C@@H]1CCCC1C(c1cccc(F)c1)c1cccc(F)c1 (some centres unmarked) [Compound 64]: 8% at
- NCCC(c1cccc(F)c1)c1cccc(F)c1 [Compound 20, 3,3-bis(3-fluorophenyl)-1-propylamine]: 5% at
- CC(CN)C(c1cccc(Cl)c1)c1cccc(Cl)c1 (centres unmarked) [Compound 46]: 10^f7% at
- CNCCC(c1cccc(F)c1)c1cccc(F)c1 [Compound 60]: 16%

Continue with the molecule presented below.
The value of Monoamine uptake binding assays: norepinephrine uptake binding assay, percent block recorded for Cc1ccc(F)cc1C(CCN)c1cc(F)ccc1C [Compound 58] when tested on norepinephrine uptake site (Rattus norvegicus, UniProt Q63380) reads 10^f1% at

---

Reported TD50, acute motor impairment values for the following molecules.
tested on: motor performance; assay: Acute motor impairment (rotorod) in mice; conditions: Frings mice, i.c.v. injection
Respond with the bare value in µg.

Known TD50, acute motor impairment results, listed for orientation:
• NCCCNCCCNCCCNC(=O)Cc1c[nH]c2ccc(F)cc12 = 14.8
• NCCCOCCCCOCCCNC(=O)Cc1c[nH]c2ccc(F)cc12 = 30.2

Continue with the molecule presented below.
TD50, acute motor impairment recorded for this molecule, `NCCCOCCCCOCCCNC(=O)Cc1cccc2ccccc12` , is 30.8

Provenance of the data: patent US6750244B2
